// data source = patent US9346815B2

Measured EC50 of individual entries
Test system: JAK1-dependent STAT6 phosphorylation downstream of IL-13 stimulation in BEAS-2B human bronchial epithelial cells
method.notes: JAK1 pathway assay in BEAS-2B cells (IL-13-pSTAT6, MSD)
Format: cell-based
experimental.parameters: read-out: IL13-pSTAT6 EC50 (uM)_BEAS-2B
Remember to put the unit after the number in your answer.

The following molecules have reported results that may help.
molecule="CN(CC(F)(F)c1ccccc1)C1CCN(C(=O)Cn2cc(NC(=O)c3cnn4cccnc34)c(-c3cc(Cl)ccc3OC(F)F)n2)CC1 [Example 102]" observable=EC50 result="0.0347 µM"
molecule="O=C(Nc1cn(CC(=O)N2C[C@H]3CN(CC4CCC(F)(F)CC4)C[C@H]3C2)nc1-c1cc(Cl)ccc1OC(F)F)c1cnn2cccnc12 [Example 33]" observable=EC50 result="0.0485 µM"

Recall and state the measured EC50 for CNC1CCN(C(=O)Cn2cc(NC(=O)c3cnn4cccnc34)c(-c3cc(Cl)ccc3OC(F)F)n2)CC1 [Example 83] . 0.143 µM

* * *

test.system: isolated recombinant JAK2 kinase domain (Homo sapiens (Human), UniProt O60674)
Sequence (O60674 849-1124): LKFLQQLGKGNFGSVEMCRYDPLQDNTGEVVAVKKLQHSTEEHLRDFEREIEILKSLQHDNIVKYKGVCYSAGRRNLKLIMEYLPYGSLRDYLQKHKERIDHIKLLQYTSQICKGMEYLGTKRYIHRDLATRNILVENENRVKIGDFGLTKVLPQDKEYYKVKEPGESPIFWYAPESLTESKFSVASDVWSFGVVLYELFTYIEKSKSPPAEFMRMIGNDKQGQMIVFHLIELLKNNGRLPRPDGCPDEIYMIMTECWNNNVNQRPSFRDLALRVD
method.notes: JAK2 enzyme assay (Caliper LabChip, peptide phosphorylation)
experimental.parameters: 25 μM ATP
Measured Ki of individual entries
Respond numerically; units are nM and should not be typed.

molecule=O=C(Nc1cn(CC(=O)N2C[C@H]3CN(CC4CC4)C[C@H]3C2)nc1-c1cc(Cl)ccc1OC(F)F)c1cnn2cccnc12 test_system="isolated recombinant JAK2 kinase domain (Homo sapiens (Human), UniProt O60674)" unit=nM measured_number=0.75

Recall and state the measured Ki for CN1CC[C@@H]2[C@@H](CCN2C(=O)Cn2cc(NC(=O)c3cnn4cccnc34)c(-c3cc(Cl)ccc3OC(F)F)n2)C1 [Example 24] . 2.02

Recall and state the measured Ki for Nc1nn2cccnc2c1C(=O)Nc1cn(CC(=O)N2CCC(Oc3ccccc3)CC2)nc1-c1cc(Cl)ccc1OC(F)F . 0.47

Recall and state the measured Ki for CC(C)Oc1ccc(CN(C)C2CCN(C(=O)Cn3cc(NC(=O)c4cnn5cccnc45)c(-c4cc(Cl)ccc4OC(F)F)n3)CC2)cc1 . 2.2

Recall and state the measured Ki for CC(c1ccccc1)N1CCN(C(=O)Cn2cc(NC(=O)c3cnn4cccnc34)c(-c3cc(Cl)ccc3OC(F)F)n2)CC1 (centres unmarked) . 1.04

Recall and state the measured Ki for O=C(Nc1cn(CC(=O)N2CC3(CCNC3)C2)nc1-c1cc(Cl)ccc1OC(F)F)c1cnn2cccnc12 . 2.71

Recall and state the measured Ki for CN1CCN(CCCN2CCC(n3cc(NC(=O)c4cnn5cccnc45)c(-c4cc(Cl)ccc4OC(F)F)n3)CC2)C1=O . 0.23

Recall and state the measured Ki for CN1CCN(C(=O)Cn2cc(NC(=O)c3cnn4cccnc34)c(-c3cc(Cl)ccc3OC(F)F)n2)C[C@@H]1CO . 1.22

Recall and state the measured Ki for O=C(Nc1cn(CC(=O)N2CCN(CCCO)CC2)nc1-c1cc(Cl)ccc1OC(F)F)c1cnn2cccnc12 . 0.71

Recall and state the measured Ki for O=C(Nc1cn(C2CCN(CCCN3CCSCC3)CC2)nc1-c1cc(Cl)ccc1OC(F)F)c1cnn2cccnc12 . 0.24

Recall and state the measured Ki for O=C(Nc1cn(CC(=O)N2CC[C@H]3CNC[C@H]3C2)nc1-c1cc(Cl)ccc1OC(F)F)c1cnn2cccnc12 . 1.16

Recall and state the measured Ki for N#CCCNC1CCN(C(=O)Cn2cc(NC(=O)c3cnn4cccnc34)c(-c3cc(Cl)ccc3OC(F)F)n2)CC1 . 0.73

Recall and state the measured Ki for CN1CCN(c2ccc(-c3nc(-c4cc(Cl)ccc4OC(F)F)c(NC(=O)c4cnn5cccnc45)s3)cc2)CC1 . 0.72

Recall and state the measured Ki for CN1CCCC(n2cc(NC(=O)c3c(N)nn4cccnc34)c(-c3cc(Cl)ccc3OC(F)F)n2)CC1 (centres unmarked) . 0.15
